# TGI per record follows
system: MCF7 breast; assay: NCI tumour cell line growth inhibition, 48 h

# Molecule, TGI
measured = [
    ("COc1cc(-c2cc(C(=O)N3CCN(C(=O)c4ccccc4NCc4cccs4)CC3)nc3cc(-c4ccccc4)nn23)cc(OC)c1OC", "> 100 µM"),
    ("COc1ccc(/C=C2\\NC(=S)N(CN3CCOCC3)C2=O)cc1", "> 100 µM"),
]

Which TGI is listed for `O=c1[nH]nc(-c2ccccc2)c2[nH]c3c(c12)CCCc1ccccc1-3` ?
50.9 µM

What does the record list as TGI for O=C1CCCC1C(O)(C(F)(F)Cl)C(F)(F)Cl (stereo not given) ?
> 10 µM

// lookup TGI for `CSc1c(C#N)c(=O)n(N)c2n[nH]c(C)c12`
> 100 µM
